assay.text: Retention time at 25 mM
Assay type: ADME
measurement.context: 25000 µM
experimental.endpoint: Retention time (min)

{"columns": ["compound", "experimental.endpoint", "observed.value"],
 "data": [
  ["COc1c(-c2nc(C)c(-c3cccnc3)[nH]2)cc2nc(C)[nH]c2c1Cl", "Retention time", 4.69],
  ["Cc1[nH]c(-c2ccccc2F)nc1-c1cccnc1", "Retention time", 8.75],
  ["COc1cc(OC)c(-c2nc(C)c(-c3cccnc3)[nH]2)cc1NC(C)=O", "Retention time", 2.75],
  ["Cc1nc2cc(Cl)c(-c3nc(C)c(-c4cccnc4)[nH]3)cc2[nH]1", "Retention time", 3.56],
  ["Cc1[nH]c(-c2ccccc2Cl)nc1-c1cccnc1", "Retention time", 8.63],
  ["CSc1ccccc1-c1nc(C)c(-c2cccnc2)[nH]1", "Retention time", 7.65],
  ["COc1cc(NC(C)=O)c([N+](=O)[O-])cc1-c1nc(C)c(-c2cccnc2)[nH]1", "Retention time", 10.35],
  ["COc1cc(NC(C)=O)c(Cl)cc1-c1nc(C)c(-c2cccnc2)[nH]1", "Retention time", 7.95],
  ["Cc1nc2cc(-c3nc(C)c(-c4cccnc4)[nH]3)c(C)cc2[nH]1", "Retention time", 1.3],
  ["CCOC(=O)COc1ccccc1-c1nc(C)c(-c2cccnc2)[nH]1", "Retention time", 9.21],
  ["COc1ccccc1-c1nc(C)c(-c2cccnc2)[nH]1", "Retention time", 4.59]
]}
